- Test system: NCI/ADR-RES ovarian
- Test name: NCI-60 one-dose screen, 48 h
- Experimental setup: 10 µM unless noted
This is part of a sample that, as a whole, favours compounds with a hit. Of some 83,000 tested, about 20% had one in any assay. Active and inactive are the calls of the source. How the source made its calls: active means growth percent below 10; inactive means the rest.
Outcome codes: class 1 = active, class 0 = inactive

Molecule	Answer label
Cc1cc(SC#N)ncn1	class 0
CCN(CC)CCCOc1ccc2c(c1)O/C(=C\c1cccc(OC)c1)C2=O	class 0
CCN(CC)CCCCCCNc1cccc2cc(Br)cnc12	class 0
COc1ncc(-c2ccc3nccc(C#CCCCCC(=O)O)c3c2)cc1NS(=O)(=O)c1ccc(F)cc1F	class 0
C[C@H]1[C@H](C)CC[C@]2(COC(=O)CCC(=O)O)CC[C@]3(C)C(=CC[C@@H]4[C@@]5(C)CCCNC(C)(C)[C@@H]5CC[C@]43C)[C@H]12	class 0
COc1ccc(C2=C(c3cn(C)c4ccccc34)C(=O)OC2)cc1OC	class 0
CC(C)c1ccc(/C=N/N=C(N)N)cc1	class 0
C=C(C)[C@@H]1CC[C@]2(COC(=O)c3ccccc3C(=O)O)CC[C@]3(C)[C@H](CC[C@@H]4[C@@]5(C)CC[C@H](OC(=O)c6ccccc6C(=O)O)C(C)(C)[C@@H]5CC[C@]43C)[C@@H]12	class 0
CCOc1ccccc1/C=N\Nc1ccc(S(=O)(=O)c2ccc(N/N=C/c3ccccc3OCC)cc2)cc1	class 0
C[C@]12CCc3nc(Nc4ccccc4)sc3C1=CC[C@@H]1[C@@H]2CC[C@]2(C)/C(=N/NC(N)=S)CC[C@@H]12	class 0
CCN(CC)c1ccc2cc(NC(=O)OCCNC(=O)CCNC(=O)[C@H](CC(C)C)NC(=O)C(C)(C)NC(=O)C(C)(C)NC(=O)[C@H](CC(C)C)NC(=O)CCNC(=O)C(C)(C)NC(=O)[C@H](CC(C)C)NC(=O)CCNC(=O)[C@@](C)(CC)NC(=O)[C@H](C)NC(=O)CCNC(=O)C(C)(C)NC(=O)[C@H](C)NC(=O)[C@@H]3CCCN3C(=O)[C@@](C)(CC)NC(=O)[C@H](Cc3ccccc3)NC(=O)C3CCCN3C(=O)C(C)(C)NC(=O)C3CCCN3C(=O)C(C)(C)NC(C)=O)c(=O)oc2c1 (stereo not given in full)	class 1
Nc1cccc2c1C(=O)c1cccc(NC(=O)c3ccccc3)c1C2=O	class 1
COc1c(B(O)O)cccc1-c1nc2ccc3[nH]ncc3c2c2c1CCC2	class 0
O=C1COCCN1c1ccc(NCc2cn(Cc3ccc(F)cc3)c3ccccc23)cc1	class 0
Cc1nc(Cl)c2c(n1)N(C)c1ccc(Cl)cc1C(C)C2 (stereo not given)	class 0
CCn1cc(-c2cc(-c3ccc(Cl)cc3)nc(N)n2)c(-c2ccc(Br)cc2)n1	class 0
ClC1=C(Cl)C(Cl)=C(Cl)C1=Cc1ccccc1	class 1
CCOC(=O)COc1ccc2c(c1)O/C(=C\c1ccc(O)cc1)C2=O	class 0
O=C(CCCCCCSc1nc(-c2ccc(Cl)cc2)cc(-c2ccc(Cl)cc2)n1)NO	class 1
Cn1cc(-c2nnc(-c3ccccc3)s2)c2cc(Br)cnc21	class 0
CCOC(=O)c1sc2nc(-c3cc(OC)c(OC)c(OC)c3)nc(N3CCOCC3)c2c1C	class 0
COc1c(C(C)=O)c(OCCCCOc2c(C(C)=O)c(OC)c3ccoc3c2OC)c(OC)c2occc12	class 0
O=C(N/N=C\c1cc(Cl)ccc1O)N/N=C/c1cc(Cl)ccc1O	class 0
CCCCCC1CCCCN1C(=O)OCCCC (stereo not given)	class 0
CC1=C/C(=C(\c2cc(C)c(O)c(C(=O)O)c2)c2c(Cl)cccc2Cl)C=C(C(=O)O)C1=O	class 0
O=C1CC(c2ccccc2)Cc2nc3ccc(Cl)cc3cc21 (stereo not given)	class 1
C[C@H]1[C@H](C)CC[C@]2(C(=O)N3CCN(C)CC3)CC[C@]3(C)C(=CC[C@@H]4[C@@]5(C)C/C(=C/c6ccco6)C(=O)C(C)(C)[C@@H]5CC[C@]43C)[C@H]12	class 0
COc1cc2c(c(Br)c1N)-c1cc(Br)c(N)cc1C2=O	class 0
CCOC(=O)CCC[P+](c1ccccc1)(c1ccccc1)c1ccccc1	class 0
Cn1c(=O)c(C#N)c(-c2ccco2)n2c(S(=O)(=O)Cc3ccccc3)nnc12	class 0
CO[C@H]1CC[C@@]2(C)C(=CC[C@H]3[C@@H]4C[C@H](O)C[C@@]4(C)CC[C@@H]32)C1	class 0
C#C[C@]1(O)CC[C@H]2[C@@H]3CC=C4c5nc(Nc6ccc(OC)cc6OC)sc5CC[C@]4(C)[C@H]3CC[C@@]21C	class 0
COc1cc2c(c(OC)c1OC)-c1cc(I)c(O)cc1[C@@H](NC(C)=O)CC2	class 0
COc1cc(OC)c(/C=C/C(=O)c2c(N)cc(OC)cc2OC)c(OC)c1	class 1
COc1cc2c(cc1OCCCCCOc1ccc(-n3c(C)nc4ccccc4c3=O)cc1)N=C[C@@H]1CCCN1C2=O	class 1

---

- Tested on: SK-OV-3 ovarian
- Test name: NCI-60 one-dose screen, 48 h
- Experimental setup: 10 µM unless noted
This is part of a sample that, as a whole, favours compounds with a hit. Of some 83,000 tested, about 20% had one in any assay. The source made the active and inactive calls. Rule for the calls: active = growth percent below 10; inactive = the rest.
Outcome codes: label 1 = active, label 0 = inactive

> print(dat)
                                    compound  answer.label
 1                           Cc1cc(SC#N)ncn1       label 0
 2  CCc1ccc(-c2ccc(COc3ccc(CC4SC(=O)NC4=O)cc3)cc2)cc1 (stereo not drawn)       label 0
 3  COC(=O)[C@@H](NC(=O)NC(=O)NC(=O)CI)C(C)C       label 0
 4  COc1cc2c(cc1OCCCCCOc1ccc(-n3c(C)nc4ccccc4c3=O)cc1)N=C[C@@H]1CCCN1C2=O       label 1
 5  COC(=O)c1cc(O)c2c(c1C(=O)OC)C[C@H]1[C@@H]3CC=C4C[C@@H](O)CC[C@]4(C)[C@H]3CC[C@]21C       label 0
 6  C=C(C)[C@@H]1CC[C@]2(C)[C@H](CC[C@@H]3[C@@H]([C@@](C)(O)CCC=C(C)C)CC[C@]32C)[C@@]1(C)CCC(=O)O       label 0
 7  Cc1nn(-c2ccccc2)c(N2CCOCC2)c1-c1nc2ccc([N+](=O)[O-])cc2[nH]1       label 0
 8  CN(Cc1cccc(C(F)(F)F)c1)C(=O)[C@@H](CC(=O)N1CCC(N2CCCCC2)CC1)N1C(=O)[C@@H](N2C(=O)OC[C@@H]2c2ccccc2)[C@H]1/C=C/c1ccccc1       label 0
 9  Ic1ccc2[nH]cc(SSc3c[nH]c4ccc(I)cc34)c2c1       label 1
10           COc1ccc2nc3ccccc3c(NCCNCCO)c2c1       label 0
11  COC(=O)[C@]12CCC(C)(C)C[C@H]1C1=CC[C@@H]3[C@@]4(C)C/C(=C/c5cccnc5)C(=O)C(C)(C)[C@@H]4CC[C@@]3(C)[C@]1(C)CC2       label 1
12  CC1(C(=O)O)CCC(N)(C(=O)O)C1(C)C (stereo not drawn)       label 0
13  Nc1ccc(NC(=O)c2ccccc2)c2c1C(=O)c1ccccc1C2=O       label 0
14  COc1cc2c(=O)[nH]c3cc([N+](=O)[O-])ccc3c2cc1[N+](=O)[O-]       label 0
15  CCn1cc(-c2ccnc(NCCNS(=O)(=O)c3ccc(Br)cc3)c2)c(-c2cccc(OC)c2)n1       label 0
16  C#CCOc1ccc(C2=NN(CC3CC3)C3N=C(Cl)c4ncn(CC5CC5)c4N23)cc1OCC#C (stereo not drawn)       label 0
17  CCn1cc(-c2ccnc(NCCNS(=O)(=O)c3cccc4ccccc34)c2)c(-c2cccc(O)c2)n1       label 0
18  Cc1ccc(S(=O)(=O)Oc2ccc([N+](=O)[O-])cc2[N+](=O)[O-])cc1       label 0

---

- Test system: CCRF-CEM leukemia
- Test name: NCI-60 one-dose screen, 48 h (100 = growth as untreated, 0 = no growth, -100 = all killed)
- Experimental setup: 10 µM unless noted
This is part of a sample that, as a whole, favours compounds with a hit. Of some 83,000 tested, about 20% had one in any assay.
Reported growth values for a set of molecules

Molecule	growth [%]
Cn1ncc2c(Nc3ccc(O)cc3)nc(Cl)nc21	92.1
C[C@]12CCc3c(ccc4cc(O)ccc34)[C@@H]1CC[C@H]2O	90.4
Cc1ccc(NCCN2CCCCC2)c2c(=O)c3ccccc3sc12	30.2
CC(C)C1=NOC(=O)C1=Cc1cn(-c2cccnc2)nc1-c1ccccc1	11.4
CC(C)C1=NOC(=O)C1=Cc1cn(-c2ccccc2)nc1-c1cccc([N+](=O)[O-])c1	2.68
N#C/C(C(=O)c1ccccc1)=C1/C(=O)Nc2ccc(Br)cc21	110
CSc1nc2c(c(=O)n1C)C1(C(=O)N(Cc3ccccc3)c3ccccc31)c1c(nc(SC)n(C)c1=O)N2	98.8
O=C(NNc1ccc(-c2ccccc2)nn1)c1ccccc1	107
Cc1cccc(C[C@H](NC(=O)Nc2ccc(Cl)cc2F)C(=O)N[C@@H]2C(=O)N3C[C@H](O)C[C@H]3C(=O)N3CCCC[C@H]3C(=O)N[C@@H](C)C(=O)N3C[C@H](C)C[C@H]3C(=O)O[C@H]2C)c1	31
CN(C)Cc1ccc[nH]1	118
Cc1cc(C)c(S(=O)(=O)/N=c2/n(-c3ccccc3)nc3n2CCN3C2=NCCN2)c(C)c1	83.7
CC1=CC[C@@H]2C(C)(C)C(=O)CC[C@@]2(C)[C@@H]1COc1ccc2ccc(=O)oc2c1	61.9
O=c1c2c3c(sc2n2cnnc2n1Cc1ccccc1)CCCC3	82.4
CCC(Br)(CC)C(=O)c1ccc(OCC(=O)O)c(Cl)c1Cl	116
N#C/C(C(=O)c1ccccc1)=C1/C(=O)Nc2ccc(F)cc21	116
N#Cc1c(Cl)nc(SCC2CO2)nc1-c1ccccc1 (stereo unspecified)	110
Cc1ccccc1-n1nnc(C(=O)Nc2nc3ccc(F)cc3s2)c1C	66.5
COc1cc(OC)cc(C(=O)Nc2cc(-c3cccnc3)nc(NCCCN3CCOCC3)n2)c1	90.8
CCCCN(CCCC)CC(O)c1ccc(OCc2ccccc2)c2ccccc12 (stereo unspecified)	72.7
c1ccc(-c2nnc(-c3c[nH]c4ncccc34)s2)cc1	101
CCOC(=O)CC(c1ccccc1)C(C#N)c1ccccc1 (stereo unspecified)	98.9
